Every entry's value here was drawn from PubChem BioAssay AID1117319.

Molecular target: Virion infectivity factor (Human immunodeficiency virus type 1 group M subtype B (isolate BH10)) + Virion infectivity factor (Human immunodeficiency virus type 1 group M subtype B (isolate BRU/LAI)) + Virion infectivity factor (Human immunodeficiency virus type 1 group M subtype B (isolate PCV12)) + Virion infectivity factor (Human immunodeficiency virus type 1 group M subtype B (isolate HXB2)) + DNA dC->dU-editing enzyme APOBEC-3G (Homo sapiens) (UniProt P69720+P69721+P69722+P69723+Q9HC16)
Experiment: HIV-1 Vif–A3G interaction blockers – biochemical, TR-FRET, GST-Vif 1-94, biotin-A3G peptide, dose response retest, primary screen (AID 1117319);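 further: Vif residues 1-94 fused to GST binding biotinylated APOBEC3G peptide 110-148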
Settings: TR-FRET GST-Vif / biotin-A3G peptide binding
Results filed as inconclusive are left out.
MEASUREMENT LABEL: pIC50
Answers are plain numbers, as −log10 of the molar value.

For the 5 compounds below, give their pIC50 values.
1. Nc1cc(N)c(OCC(F)(F)F)cc1OCC(F)(F)F
2. COc1ccc(NC(=O)c2ccccc2NC(=O)CSc2ccc(Cl)cc2)cc1
3. CCOc1cccc(OCC)c2c(C)[n+](CC3CCCO3)c(C)c1-2 (stereo not given)
4. CCC1=NN2C(=N)/C(=C\c3cccn3-c3cccc(Cl)c3)C(=O)N=C2S1
5. O=c1[nH]nc(CNc2ccc(O)cc2)c2ccccc12

Result:
1. 5.02
2. 4.24
3. 6.07
4. 4.02
5. 5.46

====

Molecular target: Virion infectivity factor (Human immunodeficiency virus type 1 group M subtype B (isolate BH10)) + Virion infectivity factor (Human immunodeficiency virus type 1 group M subtype B (isolate BRU/LAI)) + Virion infectivity factor (Human immunodeficiency virus type 1 group M subtype B (isolate PCV12)) + Virion infectivity factor (Human immunodeficiency virus type 1 group M subtype B (isolate HXB2)) + DNA dC->dU-editing enzyme APOBEC-3G (Homo sapiens) (UniProt P69720+P69721+P69722+P69723+Q9HC16)
Assay: HIV-1 Vif–A3G interaction blockers – biochemical, TR-FRET, GST-Vif 1-94, biotin-A3G peptide, dose response retest, primary screen (AID 1117319);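 further: Vif residues 1-94 fused to GST binding biotinylated APOBEC3G peptide 110-148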
Conditions: TR-FRET GST-Vif / biotin-A3G peptide binding
Results filed as inconclusive are left out.
MEASUREMENT LABEL: IC50

> print(dat)
                                   molecule   result
1    CCOC(=O)c1ccc(CC(=O)c2ccc(O)c(O)c2O)o1  11.5 µM
2        CCCC(=O)NC1=C(Cl)C(=O)c2ccccc2C1=O  13.1 µM
3  COc1ccc2[nH]c(=O)c(CN(Cc3ccco3)C(c3nnnn3Cc3ccccc3)C(C)C)cc2c1 (configuration not stated)  94.6 µM

I'm hoping you can list IC50 for every molecule here, please.
1. O=C(O)CCCCC1CCSS1 (configuration not stated)
2. CC1=NN(c2cccc(C(=O)O)c2)C(=O)/C1=C\C=C\c1ccco1
3. O=c1oc2c(O)c(O)cc3c(=O)oc4c(O)c(O)cc1c4c23
4. CCNc1ccc(Br)cc(C(=O)/C=C/c2ccc3c(c2)OCO3)c1=O

Result:
1. 7.67 µM
2. 2.89 µM
3. 0.45 µM
4. 24.7 µM

====

Please respond with reported pIC50 for every item in the list.
Target: Virion infectivity factor (Human immunodeficiency virus type 1 group M subtype B (isolate BH10)) + Virion infectivity factor (Human immunodeficiency virus type 1 group M subtype B (isolate BRU/LAI)) + Virion infectivity factor (Human immunodeficiency virus type 1 group M subtype B (isolate PCV12)) + Virion infectivity factor (Human immunodeficiency virus type 1 group M subtype B (isolate HXB2)) + DNA dC->dU-editing enzyme APOBEC-3G (Homo sapiens) (UniProt P69720+P69721+P69722+P69723+Q9HC16)
Experiment: HIV-1 Vif–A3G interaction blockers – biochemical, TR-FRET, GST-Vif 1-94, biotin-A3G peptide, dose response retest, primary screen (AID 1117319);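 further: Vif residues 1-94 fused to GST binding biotinylated APOBEC3G peptide 110-148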
Conditions: TR-FRET GST-Vif / biotin-A3G peptide binding
Inconclusive results are not listed.
Answers are plain numbers, as −log10 of the molar value.

Study these solved cases before continuing.
> print(dat)
                                   compound  measurement.label  readout.number
1      Cc1cccc(C)c1NC(=O)c1ccc(-n2cnnn2)cc1              pIC50            4.45
2  O=C(O)Cn1cc(/C=C2\C(=O)NC(=O)N(Cc3ccco3)C2=O)c2ccccc21              pIC50            4.83
3  CCn1c(SC(C)C(=O)O)nc2sc3c(c2c1=O)CCC3 (configuration not stated)              pIC50            5.05
4  O=C(Nc1ccccc1)C1=C(O)CC(c2ccco2)CC1=Nc1ccccc1 (configuration not stated)              pIC50            4.82
5  CNc1ccc(Br)cc(C(=O)/C=C/c2ccc(Cl)cc2Cl)c1=O              pIC50            5.03

For the 4 compounds below, give their pIC50 values.
1. O=c1cc(-c2ccc(O)c(O)c2)oc2cc(O)c(C3OC(CO)C(O)C(O)C3O)c(O)c12 (configuration not stated)
2. Cc1cc(C)cc(Nc2ncc3c(n2)CC(c2ccco2)CC3=O)c1 (configuration not stated)
3. CC1(OC(=O)CCc2ccccc2)C(=O)C=C2C=C(c3ccsc3)OC=C2C1=O (configuration not stated)
4. O=C(O)c1cc2cccc(S(=O)(=O)N3CCOCC3)c2cc1O

Result:
1. 4.90
2. 5.16
3. 5.33
4. 4.42

Please give pIC50, item by item, for the list that follows.
1. O=C(O)CC(C(=O)O)N1C(=O)/C(=C/C=C/c2ccco2)SC1=S (configuration not stated)
2. CC(C)(C)c1ccc(-c2nnc(SCCC#N)n2C2CCCC2)cc1
3. O=[N+]([O-])c1cc(CN2CCOCC2)c2cccnc2c1O
4. Cc1ccc(N2C(=O)NC(=O)/C(=C\C=C\c3ccco3)C2=O)cc1
5. COC1=C(OC)C(=O)C(Sc2ccc3ccccc3c2)=CC1=O
6. O=C1c2sc3nc4n(c(=O)c3c2CCC1Br)CCCCC4 (configuration not stated)

Result:
1. 6.02
2. 4.06
3. 5.39
4. 5.07
5. 5.06
6. 6.27

====

Molecular target: Virion infectivity factor (Human immunodeficiency virus type 1 group M subtype B (isolate BH10)) + Virion infectivity factor (Human immunodeficiency virus type 1 group M subtype B (isolate BRU/LAI)) + Virion infectivity factor (Human immunodeficiency virus type 1 group M subtype B (isolate PCV12)) + Virion infectivity factor (Human immunodeficiency virus type 1 group M subtype B (isolate HXB2)) + DNA dC->dU-editing enzyme APOBEC-3G (Homo sapiens) (UniProt P69720+P69721+P69722+P69723+Q9HC16)
Assay: HIV-1 Vif–A3G interaction blockers – biochemical, TR-FRET, GST-Vif 1-94, biotin-A3G peptide, dose response retest, primary screen (AID 1117319);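 further: Vif residues 1-94 fused to GST binding biotinylated APOBEC3G peptide 110-148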
Settings: TR-FRET GST-Vif / biotin-A3G peptide binding
Inconclusive results are not listed.
Would you mind telling me the reported pIC50 of each entry?
Answers are plain numbers, as −log10 of the molar value.

Observe how each entry below is paired with its result.
> print(dat)
                           molecule  measurement.label  readout.number
1   O=C(O)c1c2c(nc3ccc(Cl)cc13)CCC2              pIC50            4.63
2  Nc1ccc(Nc2ccccc2)c(S(=O)(=O)O)c1              pIC50            5.28

Hey, quick one: what's pIC50 for each of these?
1. Cc1cc([N+](=O)[O-])cc2c1NC(c1ccccn1)C1CC=CC21 (stereo not drawn)
2. CC(=O)c1ccc(NC(=O)c2ccc3nc(-c4ccco4)c(-c4ccco4)nc3c2)cc1
3. O=S(=O)(O)c1cc(O)c2cc(Nc3ccccc3)ccc2c1
4. COc1ccc(C2CC(=O)N3CN(c4ccc(C)c(Cl)c4)CSC3=C2C#N)cc1 (stereo not drawn)
5. CCOC(=O)C1(C)NC(c2ccco2)C2C(=O)N(CC)C(=O)C21 (stereo not drawn)
6. Nc1ccc(N2CCN(CCCCN3C(=O)C4CCCN4C3=O)CC2)cc1 (stereo not drawn)

Result:
5.52
5.86
5.64
4.09
4.00
5.87

====

Molecular target: Virion infectivity factor (Human immunodeficiency virus type 1 group M subtype B (isolate BH10)) + Virion infectivity factor (Human immunodeficiency virus type 1 group M subtype B (isolate BRU/LAI)) + Virion infectivity factor (Human immunodeficiency virus type 1 group M subtype B (isolate PCV12)) + Virion infectivity factor (Human immunodeficiency virus type 1 group M subtype B (isolate HXB2)) + DNA dC->dU-editing enzyme APOBEC-3G (Homo sapiens) (UniProt P69720+P69721+P69722+P69723+Q9HC16)
Test: HIV-1 Vif–A3G interaction blockers – biochemical, TR-FRET, GST-Vif 1-94, biotin-A3G peptide, dose response retest, primary screen (AID 1117319);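 further: Vif residues 1-94 fused to GST binding biotinylated APOBEC3G peptide 110-148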
Conditions: TR-FRET GST-Vif / biotin-A3G peptide binding
Records with an inconclusive call do not appear.
MEASUREMENT LABEL: IC50

Example entries begin here.
> print(dat)
                                   compound  measurement.label   result
1  O=[N+]([O-])c1c(NCCO)cc(Sc2nc3ccccc3s2)c2nonc12               IC50  34.9 µM
2  COCCN=c1scc(-c2cccs2)n1/N=C/c1ccc(O)c(O)c1O               IC50  2.37 µM
3  O=C1CC(c2ccco2)CC(O)=C1C=Nc1cc(Cl)ccc1Cl (stereo not given)               IC50  4.07 µM
4  CCc1ccc(CC)c(S(=O)(=O)Nc2ccc(C(=O)O)c(O)c2)c1               IC50  35.3 µM
5      O=C1C(Cl)=C(N2CCOCC2)C(=O)N1c1ccccc1               IC50  2.18 µM

Look at each compound and report its IC50.
1. CC(C)OP(=O)(OC(C)C)C(O)c1ccc(N(C)C)cc1 (stereo not given)
2. COc1ccc(NC(=O)CN(C)C(=O)c2cccc(-n3cccc3)c2)cc1
3. COc1ccc(N=C2S/C(=C\c3ccc(C)o3)C(=O)N2CC(C)C)cc1
4. Cc1sc2ncnc(SCc3ccco3)c2c1C
5. O=c1[nH]c(=S)[nH]c2c1C(c1ccc(Br)cc1)c1c([nH]c(=S)[nH]c1=O)O2
6. COc1cc2c(cc1OC)C(C)N(C(=O)c1cc3n(n1)C(C(F)(F)F)CC(c1ccco1)N3)CC2 (stereo not given)

Result:
1: 75.9 µM; 2: 14.9 µM; 3: 39.7 µM; 4: 28.2 µM; 5: 41.1 µM; 6: 27.8 µM
